Each entry below lists one item and its recorded metabolised at 24 h, 2 μM value.
Assay Summary: Stability of peptides in human plasma
Assay type: in vitro ADME
Measurement Setup: human, plasma, pH 7.8
Where a SMILES comes first, the peptide text is derived from it. [ ]: non-standard residue; d: D form. ξ: configuration not given here. ξαMePhe(2,6-F2) = CC(N)(Cc1c(F)cccc1F)C(=O)O; ξαMePhe(2-F) = CC(N)(Cc1ccccc1F)C(=O)O; hCit = NC(=O)NCCCC[C@H](N)C(=O)O; Cit = NC(=O)NCCC[C@H](N)C(=O)O; Nle = CCCC[C@H](N)C(=O)O; Ac5c = NC1(C(=O)O)CCCC1; Aib = CC(C)(N)C(=O)O
Numeric answer only, unit % assumed.

Compound	Scale Unit	metabolised at 24 h, 2 μM
CCCC[C@H](NC(=O)C(C)(Cc1c(F)cccc1F)NC(=O)[C@H](CCC(N)=O)NC(=O)[C@@H](NC(=O)[C@H](CCC(=O)O)NC(=O)C(C)(C)NC(=O)[C@@H](NC(=O)C1(N)CCCC1)C(C)C)[C@@H](C)CC)C(=O)N[C@@H](Cc1c[nH]cn1)C(=O)N[C@@H](CCC(N)=O)C(=O)NC(C)(Cc1c(F)cccc1F)C(=O)NC(C)(C)C(=O)N[C@@H](CCCNC(N)=O)C(=O)NC(C)(Cc1ccccc1F)C(N)=O (some centres unmarked) [Seq. ID. 480] (H-[Ac5c]V[Aib]EIQ[ξαMePhe(2,6-F2)][Nle]HQ[ξαMePhe(2,6-F2)][Aib][Cit][ξαMePhe(2-F)]-NH2)	%	0

Kindly consider the entry below.
Query: Looking for the measured metabolised at 24 h, 2 μM of CCCC[C@H](NC(=O)C(C)(Cc1c(F)cccc1F)NC(=O)[C@H](CCC(N)=O)NC(=O)[C@@H](NC(=O)[C@H](CCC(=O)O)NC(=O)C(C)(C)NC(=O)[C@@H](NC(=O)C(C)(C)N)C(C)C)[C@@H](C)CC)C(=O)N[C@@H](Cc1c[nH]cn1)C(=O)N[C@@H](CCC(N)=O)C(=O)N[C@@H](CCCCNC(N)=O)C(=O)NC(C)(C)C(=O)NC(C)(C)C(=O)NC(C)(Cc1ccccc1F)C(N)=O (some centres unmarked) [Seq. ID. 430] (H-[Aib]V[Aib]EIQ[ξαMePhe(2,6-F2)][Nle]HQ[hCit][Aib][Aib][ξαMePhe(2-F)]-NH2) , can you help?
Result: 0

* * *

Assay Summary: Stability of peptides in human plasma
Assay type: in vitro ADME
Measurement Setup: human, plasma
Where a SMILES comes first, the peptide text is derived from it. [ ]: non-standard residue; d: D form. ξ: configuration not given here. ξαMePhe(2-F) = CC(N)(Cc1ccccc1F)C(=O)O; ξαMeW = CC(N)(Cc1c[nH]c2ccccc12)C(=O)O; hhPhe = N[C@@H](CCCc1ccccc1)C(=O)O; hArg = N=C(N)NCCCC[C@H](N)C(=O)O; Cit = NC(=O)NCCC[C@H](N)C(=O)O; ξαMeNle = CCCCC(C)(N)C(=O)O; Nle = CCCC[C@H](N)C(=O)O; Ac3c = NC1(C(=O)O)CC1; Aib = CC(C)(N)C(=O)O

Molecule	half-life (t1/2) in human plasma
CCCC[C@H](NC(=O)C(C)(Cc1ccccc1F)NC(=O)[C@H](CCC(N)=O)NC(=O)[C@@H](NC(=O)[C@H](CCC(=O)O)NC(=O)C(C)(C)NC(=O)[C@@H](NC(=O)C(C)(C)N)C(C)C)[C@@H](C)CC)C(=O)N[C@@H](Cc1c[nH]cn1)C(=O)N[C@@H](CCC(N)=O)C(=O)N[C@@H](CCCNC(N)=O)C(=O)N[C@@H](C)C(=O)N[C@@H](CCCNC(N)=O)C(=O)NC(C)(Cc1ccccc1F)C(N)=O (some centres unmarked) [Seq. ID. 345] (H-[Aib]V[Aib]EIQ[ξαMePhe(2-F)][Nle]HQ[Cit]A[Cit][ξαMePhe(2-F)]-NH2)	(9) h
CCCCC(C)(NC(=O)[C@H](CC(C)C)NC(=O)[C@H](CCC(N)=O)NC(=O)[C@@H](NC(=O)[C@H](CCC(=O)O)NC(=O)C(C)(C)NC(=O)[C@@H](NC(=O)C1(N)CC1)C(C)C)[C@@H](C)CC)C(=O)N[C@@H](Cc1c[nH]cn1)C(=O)N[C@@H](CCC(N)=O)C(=O)N[C@@H](CCCCNC(=N)N)C(=O)N[C@@H](C)C(=O)N[C@@H](CCCCNC(=N)N)C(=O)NC(C)(Cc1c[nH]c2ccccc12)C(=O)N[C@@H](CCCc1ccccc1)C(N)=O (some centres unmarked) [Seq. ID. 945] (H-[Ac3c]V[Aib]EIQL[ξαMeNle]HQ[hArg]A[hArg][ξαMeW][hhPhe]-NH2)	(9) h

* * *

Each entry below lists one item and its recorded % degradation of peptides in 24 h when incubated with liver microsomes value.
Assay Summary: Stability of peptides in human liver microsomes
Assay type: in vitro ADME
Measurement Setup: human, microsomes, 24 h, 2 μM, pH 7.8
Where a SMILES comes first, the peptide text is derived from it. [ ]: non-standard residue; d: D form. ξ: configuration not given here. ξαMePhe(2,6-F2) = CC(N)(Cc1c(F)cccc1F)C(=O)O; ξαMePhe(2-F) = CC(N)(Cc1ccccc1F)C(=O)O; hArg = N=C(N)NCCCC[C@H](N)C(=O)O; Nle = CCCC[C@H](N)C(=O)O; ξαMeP = CC1(C(=O)O)CCCN1; Ac5c = NC1(C(=O)O)CCCC1; Ac3c = NC1(C(=O)O)CC1; Aib = CC(C)(N)C(=O)O
Numeric answer only, unit % assumed.

Compound	Quantitative Readout
CCCC[C@H](NC(=O)C(C)(Cc1c(F)cccc1F)NC(=O)[C@H](CCC(N)=O)NC(=O)[C@@H](NC(=O)[C@H](CCC(=O)O)NC(=O)C(C)(C)NC(=O)[C@@H](NC(=O)C1(N)CCCC1)C(C)C)[C@@H](C)CC)C(=O)N[C@@H](Cc1c[nH]cn1)C(=O)N[C@@H](CCC(N)=O)C(=O)N[C@@H](CCCCNC(=N)N)C(=O)NC(C)(C)C(=O)NC(C)(Cc1c(F)cccc1F)C(=O)NC(C)(Cc1c(F)cccc1F)C(N)=O (some centres unmarked) [Seq. ID. 240] (H-[Ac5c]V[Aib]EIQ[ξαMePhe(2,6-F2)][Nle]HQ[hArg][Aib][ξαMePhe(2,6-F2)][ξαMePhe(2,6-F2)]-NH2)	78

Kindly consider the entry below.
Query: Looking for the measured % degradation of peptides in 24 h when incubated with liver microsomes of CCCC[C@H](NC(=O)C(C)(Cc1c(F)cccc1F)NC(=O)[C@H](CCC(N)=O)NC(=O)[C@@H](NC(=O)[C@H](CCC(=O)O)NC(=O)C(C)(C)NC(=O)[C@@H](NC(=O)C1(N)CC1)C(C)C)[C@@H](C)CC)C(=O)N[C@@H](Cc1c[nH]cn1)C(=O)N[C@@H](CCC(N)=O)C(=O)N[C@@H](CCCCNC(=N)N)C(=O)N1CCCC1(C)C(=O)N[C@@H](CCCCN)C(=O)NC(C)(Cc1ccccc1F)C(N)=O (some centres unmarked) [Seq. ID. 75] (H-[Ac3c]V[Aib]EIQ[ξαMePhe(2,6-F2)][Nle]HQ[hArg][ξαMeP]K[ξαMePhe(2-F)]-NH2) , can you help?
Result: 100

FYI, the data here is from patent US8383581B2.
